Listed molecules paired with reported %Inh
Test system: RIPK4;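 also: KINOMEscan kinase panel screen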
Settings: concentration: 1 μM, replicates: in singlicate; n = 1

Illustrative cases are given below, each with its answer.
1) CC(=O)Nc1n[nH]c2ncc(-c3ccccc3)cc12 = 24%
2) COc1ccc(Nc2nccc(N3CCC(NC(=O)Nc4ccc5c(c4)OCO5)C3)n2)cc1 (stereo not drawn) = 0%

Query: Item Cl.c1ccc(Cn2ccc3cc(Nc4ncnc5ccccc45)ccc32)cc1 has what recorded %Inh?
Result: 21%

Query: Requested read-out: %Inh. Entry: COC(=O)c1c(-c2ccccc2)c2cc(Cl)ccc2c(=O)n1Cc1ccc(S(C)(=O)=O)cc1
Result: 13%

###

Tested on: RIPK1;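 also: kd values determined as follow-up on hits from a single-replicate KINOMEscan panel screen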
measurement label: pKd
A value of pKd is the negative decimal logarithm of a concentration given in moles per litre.

Query: Using the record for Nc1nccc2scc(-c3ccc4c(c3)CCN4C(=O)Cc3cc(F)ccc3F)c12 , report its pKd.
Result: 6.24
